Biological target: T1, human IL-12RB2 overexpressed on 293T cells (Example 2) (human, UniProt Q99665 24-862)
T1 construct: whole, on cells
T1 sequence (looked up): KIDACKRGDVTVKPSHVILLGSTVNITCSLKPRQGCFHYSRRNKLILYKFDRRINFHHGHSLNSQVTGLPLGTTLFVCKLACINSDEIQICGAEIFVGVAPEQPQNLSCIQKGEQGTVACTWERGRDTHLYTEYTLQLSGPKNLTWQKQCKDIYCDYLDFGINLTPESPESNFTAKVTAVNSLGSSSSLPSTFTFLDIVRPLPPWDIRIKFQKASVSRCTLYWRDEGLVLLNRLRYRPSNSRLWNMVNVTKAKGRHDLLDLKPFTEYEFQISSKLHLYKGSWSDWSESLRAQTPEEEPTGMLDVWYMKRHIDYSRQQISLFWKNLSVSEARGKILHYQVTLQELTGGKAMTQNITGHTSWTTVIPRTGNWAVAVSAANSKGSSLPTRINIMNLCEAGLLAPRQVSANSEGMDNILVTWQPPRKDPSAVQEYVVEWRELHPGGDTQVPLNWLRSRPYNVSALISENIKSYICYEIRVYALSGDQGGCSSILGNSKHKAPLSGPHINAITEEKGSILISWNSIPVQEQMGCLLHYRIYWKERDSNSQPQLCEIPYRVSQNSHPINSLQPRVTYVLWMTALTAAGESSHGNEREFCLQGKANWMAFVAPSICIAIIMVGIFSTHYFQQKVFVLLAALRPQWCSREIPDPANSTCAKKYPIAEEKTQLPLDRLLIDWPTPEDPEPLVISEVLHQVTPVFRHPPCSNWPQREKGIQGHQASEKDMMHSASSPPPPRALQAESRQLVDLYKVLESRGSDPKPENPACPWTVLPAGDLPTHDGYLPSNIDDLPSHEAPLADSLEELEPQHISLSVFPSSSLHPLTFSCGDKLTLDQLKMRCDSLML
Experiment: FACS, hybridoma supernatant, 293T
readoutName: Fold over parental 293T (fold)
Numbers only, in fold.

Ask: Please supply the value of reported Fold over parental 293T for the item 85802_06A17 (antibody, V domains shown, also called 85802_06A17A) VH: EVQLVQSGAEVKKPGESLKISCKGSGYSFTSYWIGWVRQMPGKGLECMGIIYPGDSDTRYSPSFQGQVTISADKSISTAYLQWSSLKASDTAMYYCARHEGAYWYFDLWGRGTLVTVSS VL: QSVLTQPPSVSGAPGQRVTISCTGSSSNIGAGYDVHWYQQLPGTAPKVLIYGNSNRPSGVPDRFSGSKSGTSASLAITGLQAEDEADYYCQSLDTSHVVFGGGTKLTVL
Reply: 2.8
